Data provenance: patent US6479487B1

Molecular target: cdk2/cyclin E (Homo sapiens, UniProt P24941)
Construct: made in house; host or cells: insect cells (baculovirus co-infection)
Assay: Cyclin-Dependent Kinase 2 Assay (cdk2/cyclin E, GST-Rb substrate)
Assay type: biochemical
Conditions: recombinant cdk2/cyclin E, 10 μM ATP, 30 min at 30° C., several values in a cell = separate determinations, read-out: CDK-2 Inhibition IC50
Where a name gives a salt, the structure may show the parent alone.
Assign labels as follows, please: criterion met for IC50 below 0.2 µM; criterion not met for IC50 equal to or exceeding 0.2 µM.

[ask] Item COc1ccc(CNc2nc(N[C@H]3CC[C@H](N)CC3)nc3c2ncn3C2CCCC2)cc1OC [Example 34, dihydrochloride] : IC50 beneath 0.2 µM, strictly?
[reply] criterion met

[ask] Item N[C@H]1CC[C@H](Nc2nc(NNc3ccc(Cl)cc3Cl)c3ncn(C4CCCC4)c3n2)CC1 [Example 147, dihydrochloride] : IC50 beneath 0.2 µM, strictly?
[reply] criterion not met

[ask] Item N[C@H]1CC[C@H](Nc2nc(NCc3ccccc3C(F)(F)F)c3ncn(C4CCCC4)c3n2)CC1 [Example 25, dihydrochloride] : IC50 beneath 0.2 µM, strictly?
[reply] criterion not met

[ask] Item N[C@H]1CC[C@H](Nc2nc(NC3CCN(Cc4c(F)cccc4F)CC3)c3ncn(C4CCCC4)c3n2)CC1 [Example 147-v, trihydrochloride] : IC50 beneath 0.2 µM, strictly?
[reply] criterion not met

[ask] Item COc1ccccc1CNc1nc(N[C@H]2CC[C@H](N)CC2)nc2c1ncn2C1CCCC1 [Example 12, dihydrochloride] : IC50 beneath 0.2 µM, strictly?
[reply] criterion not met

[ask] Item COc1ccc(CCNc2nc(N[C@H]3CC[C@H](N)CC3)nc3c2ncn3C2CCCC2)cc1 [Example 14, dihydrochloride] : IC50 beneath 0.2 µM, strictly?
[reply] criterion met

[ask] Item COc1cc(CNc2nc(N[C@H]3CC[C@H](N)CC3)nc3c2ncn3C2CCCC2)cc(OC)c1 [Example 28, dihydrochloride] : IC50 beneath 0.2 µM, strictly?
[reply] criterion not met

[ask] Item COc1ccc(CNc2nc(N[C@H]3CC[C@H](N)CC3)nc3c2ncn3C(C)C)cc1 [Example 37, dihydrochloride] : IC50 beneath 0.2 µM, strictly?
[reply] criterion not met

[ask] Item N[C@H]1CC[C@H](Nc2nc(NC3(CO)CCCC3)c3ncn(C4CCCC4)c3n2)CC1 [Example 146, dihydrochloride] : IC50 beneath 0.2 µM, strictly?
[reply] criterion met
